# measurement-description: NOD1 signaling inhibitors, primary screen, cell-based, luminescence, uHTS (AID 1578);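 also: HEK-293T reporter cells stimulated with the NOD1 agonist gamma-tri-DAP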
# cond: NOD1-driven NF-kB luciferase reporter cells, at 4 µM, stronger effect = higher value
Hit rate of the full screen: of about 290,000 compounds, about 3,000 (1%) were called active. The entries come from a sample that favours actives as a whole.
Listing of entries alongside the reported inhibition.

{"columns": ["compound", "measure-unit", "inhibition"],
 "data": [
  ["CCCCCc1ccc(-c2ccc(/C=C/C(N)=O)cc2)nc1", "%", -38.2],
  ["Cc1cc(S(=O)(=O)Nc2ccc3c(c2)n(C)c(=O)n3C)ccc1F", "%", 0.4],
  ["O=C(Nc1ccc(NC(=O)c2ccccc2Cl)cc1)c1cccnc1", "%", -48.1],
  ["Oc1ccccc1N=Cc1c(O)ccc2oc3c(c12)CCCC3", "%", -2.1],
  ["Oc1ccc(-c2cn3ccccc3n2)cc1O", "%", 1.7],
  ["O=C(Nc1ccc(OC(F)F)c(Cl)c1)Nc1ccc2c(c1)OCO2", "%", -34.5],
  ["Cc1nn(-c2ccccc2)c2c1P(=O)(O)/C(=C1\\N(C)c3ccccc3C1(C)C)C=N2", "%", -9],
  ["Cc1cccc(/N=C/c2c(O)ccc3oc4c(c23)CCCC4)n1", "%", 3.8],
  ["Cc1noc(C)c1CSc1cc(C)c2ccccc2n1", "%", -32.2],
  ["CCc1ccc2c(CN3CCN(S(=O)(=O)c4ccc5c(c4)OCCO5)CC3)cc(=O)oc2c1", "%", -2.7],
  ["CCOC(=O)c1nc2sc(C)c(C)c2c(=O)[nH]1", "%", 4.3],
  ["O=C1NCCc2c1[nH]c1c(Cl)ccc(Cl)c21", "%", 79.2],
  ["COC(=O)CN1C(=O)C2(C(C#N)=C(N)Oc3ccccc32)C2=C1CC(C)(C)CC2=O (configuration not stated)", "%", 1.7],
  ["CN(C)c1nc(C(F)(F)F)cc(=O)[nH]1", "%", -21.2],
  ["O=C(O)c1ccc(N=Cc2c(O)ccc3oc4c(c23)CCCC4)cc1", "%", 60],
  ["CCN(C(=O)c1c(-c2ccccc2Cl)noc1C)C1CCCCC1", "%", -10.1],
  ["COc1ccc(-n2c(Cc3cccn3C)nnc2SCC(=O)Nc2ccccc2OC)cc1", "%", 55],
  ["COc1ccc(-n2c(Cc3cccn3C)nnc2SCC(=O)Nc2ccc(Cl)cc2)cc1", "%", 39.9],
  ["COC(=O)c1ccc2nc(-c3cccc(N)c3)cn2c1", "%", 40.5],
  ["Cc1cc(O)c(C(=O)/C=C/c2ccc(Cl)cc2)c(=O)o1", "%", 46.1],
  ["O=c1c2c(nc3cc(-c4ccccc4)[nH]n13)CCC2", "%", -31.8],
  ["COc1ccc(-n2c(Cc3cccn3C)nnc2SCC(=O)Nc2ccccc2C)cc1", "%", 57],
  ["Cc1ccc(CSc2nc3ccsc3c(=O)n2Cc2ccccn2)cc1", "%", -0.8],
  ["COc1ccc(C(C)=O)cc1CSc1ncccn1", "%", -32.9],
  ["Oc1ccc2oc3c(c2c1/C=N/n1cnnc1)CCCC3", "%", 59.5],
  ["Cc1cc(O)c(C(=O)/C=C/c2ccccc2)c(=O)o1", "%", 0.7],
  ["Cc1ccc(N2C(=O)/C(=C/c3cccnc3)SC2=S)cc1", "%", 56.2],
  ["COc1ccc(-n2c(Cc3cccn3C)nnc2SCC(=O)Nc2cccc(C)c2C)cc1", "%", 33.3],
  ["COC(=O)c1ccc2nc(-c3ccc4c(c3)OCO4)cn2c1", "%", 68.3],
  ["Cc1cccc(C(=O)NC(=O)Nc2c(C)cc(C)nc2C)c1", "%", -46.9],
  ["COc1ccc(-c2nnc(-c3cccnc3)o2)cc1OC", "%", -21.1],
  ["Clc1ccc2nc(-c3ccc4c(c3)OCO4)cn2c1", "%", -30.6],
  ["CC(C)(C)N=Cc1c(O)ccc2oc3c(c12)CCCC3", "%", -1.4],
  ["NC(=O)N/N=C/c1c(O)ccc2oc3c(c12)CCCC3", "%", -15.5],
  ["Cc1ccc(S(=O)(=O)n2cc(-c3ccccc3)c(N)n2)cc1", "%", -4.9],
  ["Oc1ccc(Nc2ncnc3ccccc23)cc1", "%", 4.4],
  ["CCOC(=O)/C(=C\\c1cccc(O)c1)c1nc2sc(C)c(C)c2c(=O)[nH]1", "%", 105],
  ["OC(CNCCc1ccc(Cl)cc1)COc1cc(Cl)ccc1Cl (configuration not stated)", "%", -10.1],
  ["O=c1c2c(nc3cc(-c4ccc(F)cc4)[nH]n13)CCC2", "%", 62.6],
  ["CCc1ccc(N(CC(=O)N2CCN(Cc3ccccc3)CC2)S(C)(=O)=O)cc1", "%", -32.3],
  ["Cc1ccc2[nH]c3c(c2c1)CCNC3=O", "%", -41.5],
  ["O=Cc1c(NCCN2CCOCC2)c2ccccc2[nH]c1=O", "%", 59.2],
  ["COc1ccccc1NC(=O)c1ccccc1Nc1ccccc1", "%", -5.4],
  ["C=CCC1(CC=C)CCCN1C(=O)c1cc(COc2cccc(OC)c2)on1", "%", 0.2],
  ["Nc1cccc(Nc2ncnc3ccccc23)c1", "%", 3],
  ["COc1ccc(NC(=O)CSc2nnc(Cc3cccn3C)n2-c2ccc(OC)cc2)cc1", "%", 0.1],
  ["COCCN1CCN(C(=O)C2CCC(=O)N(Cc3ccccc3OC)C2)CC1 (configuration not stated)", "%", -18.1]
]}

###

Listing of entries alongside the reported inhibition.
# measurement-description: NOD1 signaling inhibitors, primary screen, cell-based, luminescence, uHTS (AID 1578);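 also: HEK-293T reporter cells stimulated with the NOD1 agonist gamma-tri-DAP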
# cond: NOD1-driven NF-kB luciferase reporter cells, at 4 µM, stronger effect = higher value
Hit rate of the full screen: of about 290,000 compounds, about 3,000 (1%) were called active. This excerpt belongs to a sample that is enriched for actives.
measurement-label: inhibition (%)

{"columns": ["compound", "measurement-label", "val"],
 "data": [
  ["CC1CCc2nc(NC(=O)Cc3cccs3)sc2C1 (stereo not given)", "inhibition", -17.9],
  ["CCCC(=O)C1=C(O)C(C(=O)OC)C(C)(C)CC1=Nc1ccccc1 (stereo not given)", "inhibition", -9.6],
  ["CCNC(=O)C1CCCc2c1[nH]c1ccc(Cl)cc21 (stereo not given)", "inhibition", -25.3],
  ["CCCCNC(=O)CCC(=O)Nc1ccc2nc(N3CCCCC3)cc(C)c2c1", "inhibition", -15.4],
  ["COC(=O)c1ccc(Sc2nnnn2-c2ccccc2)c([N+](=O)[O-])c1", "inhibition", 48.6],
  ["CCc1cccc2c(C(=O)COC(=O)c3ccccc3)c[nH]c12", "inhibition", -19.8],
  ["CCCC(=O)C1=C(O)C(C(=O)OC)C(C)(C)CC1=Nc1ccc(OC)cc1 (stereo not given)", "inhibition", -37.1],
  ["O=C(CCl)Nc1ccc(N=Nc2ccccc2)cc1", "inhibition", 107],
  ["CC(C)c1ccc2c(c1)c(SC(C)(C)C)c(CC(C)(C)C(=O)O)n2Cc1ccc(Cl)cc1", "inhibition", 37.3],
  ["COC(=O)c1sccc1NC(=O)/C=C/C(=O)O", "inhibition", -34.3],
  ["COc1ccc(CC(=O)OCC(=O)NCCc2ccccc2)cc1OC", "inhibition", -25.2],
  ["Cc1noc(C)c1C(=O)OCC(=O)c1c[nH]c2ccccc12", "inhibition", -6.2],
  ["CCOc1ccc(NC(=O)c2cnsn2)cc1", "inhibition", -6.3],
  ["CN1CCN(S(=O)(=O)c2ccc(Sc3nnnn3-c3ccccc3)c([N+](=O)[O-])c2)CC1", "inhibition", 93.5],
  ["Cc1cc(C(=O)NNS(=O)(=O)c2ccc(C(C)(C)C)cc2)nn1C(C)(C)C", "inhibition", -6.5],
  ["COc1cc(OC)cc(C(=O)Nc2cccc(NC(=O)c3ccccc3)c2)c1", "inhibition", 2.4],
  ["O=C(O)CCC(=O)Nc1ccc(N=Nc2ccccc2)cc1", "inhibition", -26.1],
  ["O=C(Cc1ccc(Cl)cc1)Nc1ccccc1Sc1ccccc1", "inhibition", -16.9],
  ["Cc1ccc(-c2nc(N3CCOCC3)sc2C(=O)N2CCOCC2)cc1", "inhibition", -12.2],
  ["O=C(CCl)Nc1ccccc1Sc1ccccc1", "inhibition", 21.3],
  ["Cc1onc(-c2c(Cl)cccc2Cl)c1C(=O)N/N=C(\\N)COc1ccc(Cl)cc1", "inhibition", 71.9],
  ["CC(=O)c1ccc(NC(=O)c2cnsn2)cc1", "inhibition", 44.1],
  ["O=C(NCCCN1CCCC1=O)[C@H](CSCc1ccccc1)N1Cc2ccccc2C1=O", "inhibition", 1.9],
  ["O=C(CSc1nc2ccccc2o1)Nc1nc2ccccc2s1", "inhibition", 25.3],
  ["CC1CCc2nc(NC(=O)CCSc3ccccc3)sc2C1 (stereo not given)", "inhibition", -19.7],
  ["Cc1cc(C(F)(F)F)c(C#N)c(SCC(=O)Nc2nc3cc(Br)ccc3s2)n1", "inhibition", 67.4],
  ["Cc1cccc(/C=C/C(=O)c2ccc(NC3=NCCCS3)cc2)c1", "inhibition", 32.1],
  ["Cc1ccc(C(=O)c2ccc(O)cc2)cc1C", "inhibition", -29.5],
  ["Cc1cc2cc(CCNC(=O)c3cccc([N+](=O)[O-])c3)c(=O)[nH]c2cc1C", "inhibition", 3.3],
  ["CC(C)CSC1=NSC2=NC(=O)/C(=C\\c3cccs3)C(=N)N12", "inhibition", 41.8],
  ["COc1ccccc1CN(Cc1nc2ccccc2c(=O)[nH]1)S(=O)(=O)c1ccc(C)cc1", "inhibition", -16.5],
  ["COc1ccc(NC(=O)CCCn2cnc3ccccc3c2=O)cc1", "inhibition", 9],
  ["CC(C)OC(=O)c1ccc(COC(=O)c2cccc(-c3nnc(-c4ccccc4)o3)c2)cc1", "inhibition", -13],
  ["N=C1/C(=C/c2cccs2)C(=O)N=C2SN=C(SCc3ccccc3)N12", "inhibition", 80.4],
  ["CC(C)c1ccc(C(=O)NCc2ccc(Cl)cc2)cc1", "inhibition", -22.8],
  ["O=[N+]([O-])c1ccc(Sc2nnnn2-c2ccccc2)c(Cl)c1", "inhibition", -1],
  ["COc1ccc(/C=C/C(=O)c2ccc(NC3=NCCCS3)cc2)cc1OC", "inhibition", 44.3],
  ["Cc1ccc(S(=O)(=O)N2CCN(C(=O)CSC3CCCC3)CC2)c(C)c1", "inhibition", -8.8],
  ["CCNC(=O)Cc1c(OC)ccc2cc(Br)ccc12", "inhibition", -58.1],
  ["Cc1ccc2sc(NC(=O)CSc3nc(C)cc(C)c3C#N)nc2c1", "inhibition", -16.6],
  ["COc1cccc(/C=C/C(=O)c2ccc(NC3=NCCCS3)cc2)c1", "inhibition", -44.4],
  ["CCCCn1c(Oc2ccc(C(=O)OC)cc2)nc2c1c(=O)n(C)c(=O)n2C", "inhibition", 9.2],
  ["O=C(NC1CCCCCC1)c1cc(S(=O)(=O)N2CCCCC2)ccc1N1CCOCC1", "inhibition", -7.1],
  ["O=[N+]([O-])c1cc(S(=O)(=O)NCCN2CCOCC2)ccc1Sc1nnnn1-c1ccccc1", "inhibition", 46.1],
  ["CCc1cccc2c(C(=O)COC(=O)c3cccc(S(=O)(=O)N(C)C4CCCCC4)c3)c[nH]c12", "inhibition", 77.3]
]}
